# Tested on: male pattern baldness in stage V
# EXPERIMENTAL PROTOCOL: Therapeutic effect on male pattern baldness in stage V, scored (Example 10)
# Format: in vivo, human
# Design: key: 10: alopecic area decreased to 1/5 or less and hair density increased by 2/3 or more; 7: alopecic area decreased to 1/3 or less and hair density increased by 1/3 or more; 4: alopecic area decreased to 1/2 or less and hair density increased by 1/5 or more; alopecic area decreased by 20% and hair density increased by 10% or more; 1: alopecic area hardly changed but hair density increased definitely; 0: no change at all
# CONDITION INFO: 4 months; formula with 1% diterpene, twice a day
Below, each entry is listed with its recorded Score, 4 mo..
The reply should be a number, written without any unit.

For the compound C=C/C(C)=C/CC1C(=C)CCC2C(C)(C)CCCC12C (stereo not shown) [Sample II, (E)8(17),12,14-labdatriene] , what Score, 4 mo. is on record?
7

Query: Score, 4 mo.; subject: C=C/C(C)=C/CC1C(=C)CCC2C(C)(C(=O)O)CCCC12C (stereo not shown) [Sample I, (E)8(17),12,14-labdatrien-19-oic acid]
7

Recorded Score, 4 mo. for C=C/C(C)=C/CC1C(=C)CCC2C(C)(CO)CCCC12C (stereo not shown) [Sample III, (E)8(17),12,14-labdatrien-19-ol] , please?
7

// below: Score, 4 mo. requested for another compound
Look at this compound and give its reported Score, 4 mo.. CC(C)C(=O)Nc1ccc([N+](=O)[O-])c(C(F)(F)F)c1 [Flutamide, reference compound]
2
